target-entity: Histone acetyltransferase KAT8 (Homo sapiens) (UniProt Q9H7Z6)
Sequence (Q9H7Z6 whole entry): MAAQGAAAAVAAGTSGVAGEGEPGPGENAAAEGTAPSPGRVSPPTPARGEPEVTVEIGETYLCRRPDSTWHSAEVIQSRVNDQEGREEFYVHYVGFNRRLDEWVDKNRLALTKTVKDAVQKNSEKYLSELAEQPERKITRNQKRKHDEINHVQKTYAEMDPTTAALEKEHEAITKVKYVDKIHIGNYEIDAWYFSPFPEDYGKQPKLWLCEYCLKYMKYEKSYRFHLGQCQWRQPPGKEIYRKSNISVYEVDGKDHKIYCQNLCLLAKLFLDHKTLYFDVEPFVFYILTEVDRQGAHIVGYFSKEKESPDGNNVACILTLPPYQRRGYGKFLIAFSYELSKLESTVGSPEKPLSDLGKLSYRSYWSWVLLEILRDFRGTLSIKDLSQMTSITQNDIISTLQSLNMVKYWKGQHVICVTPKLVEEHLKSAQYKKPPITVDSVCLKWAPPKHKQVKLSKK
assay-summary: Inhibition of recombinant N-terminal His6-tagged KAT8 (unknown origin) expressed in Escherichia Coli BL21 DE3 cells assessed as reduction of Co A level using histone H4 substrate after 15 mins by CPM fluorescence assay
logIC50 for assorted molecules
recorded-metric: logIC50

INSERT INTO assay_data (molecule_smiles, measurement) VALUES
  ('O=C(O)c1c(O)cccc1CCCCCO', '> 2.8'),
  ('CCCCCCCSCC(=O)c1ccccc1O', '> 2.8'),
  ('CCCCCCCCCCc1ccc(O)c(C(=O)O)c1', 2.28);

====

target-entity: Histone acetyltransferase p300 (Homo sapiens) (UniProt Q09472)
Sequence (Q09472 whole entry, the tested form may be a part): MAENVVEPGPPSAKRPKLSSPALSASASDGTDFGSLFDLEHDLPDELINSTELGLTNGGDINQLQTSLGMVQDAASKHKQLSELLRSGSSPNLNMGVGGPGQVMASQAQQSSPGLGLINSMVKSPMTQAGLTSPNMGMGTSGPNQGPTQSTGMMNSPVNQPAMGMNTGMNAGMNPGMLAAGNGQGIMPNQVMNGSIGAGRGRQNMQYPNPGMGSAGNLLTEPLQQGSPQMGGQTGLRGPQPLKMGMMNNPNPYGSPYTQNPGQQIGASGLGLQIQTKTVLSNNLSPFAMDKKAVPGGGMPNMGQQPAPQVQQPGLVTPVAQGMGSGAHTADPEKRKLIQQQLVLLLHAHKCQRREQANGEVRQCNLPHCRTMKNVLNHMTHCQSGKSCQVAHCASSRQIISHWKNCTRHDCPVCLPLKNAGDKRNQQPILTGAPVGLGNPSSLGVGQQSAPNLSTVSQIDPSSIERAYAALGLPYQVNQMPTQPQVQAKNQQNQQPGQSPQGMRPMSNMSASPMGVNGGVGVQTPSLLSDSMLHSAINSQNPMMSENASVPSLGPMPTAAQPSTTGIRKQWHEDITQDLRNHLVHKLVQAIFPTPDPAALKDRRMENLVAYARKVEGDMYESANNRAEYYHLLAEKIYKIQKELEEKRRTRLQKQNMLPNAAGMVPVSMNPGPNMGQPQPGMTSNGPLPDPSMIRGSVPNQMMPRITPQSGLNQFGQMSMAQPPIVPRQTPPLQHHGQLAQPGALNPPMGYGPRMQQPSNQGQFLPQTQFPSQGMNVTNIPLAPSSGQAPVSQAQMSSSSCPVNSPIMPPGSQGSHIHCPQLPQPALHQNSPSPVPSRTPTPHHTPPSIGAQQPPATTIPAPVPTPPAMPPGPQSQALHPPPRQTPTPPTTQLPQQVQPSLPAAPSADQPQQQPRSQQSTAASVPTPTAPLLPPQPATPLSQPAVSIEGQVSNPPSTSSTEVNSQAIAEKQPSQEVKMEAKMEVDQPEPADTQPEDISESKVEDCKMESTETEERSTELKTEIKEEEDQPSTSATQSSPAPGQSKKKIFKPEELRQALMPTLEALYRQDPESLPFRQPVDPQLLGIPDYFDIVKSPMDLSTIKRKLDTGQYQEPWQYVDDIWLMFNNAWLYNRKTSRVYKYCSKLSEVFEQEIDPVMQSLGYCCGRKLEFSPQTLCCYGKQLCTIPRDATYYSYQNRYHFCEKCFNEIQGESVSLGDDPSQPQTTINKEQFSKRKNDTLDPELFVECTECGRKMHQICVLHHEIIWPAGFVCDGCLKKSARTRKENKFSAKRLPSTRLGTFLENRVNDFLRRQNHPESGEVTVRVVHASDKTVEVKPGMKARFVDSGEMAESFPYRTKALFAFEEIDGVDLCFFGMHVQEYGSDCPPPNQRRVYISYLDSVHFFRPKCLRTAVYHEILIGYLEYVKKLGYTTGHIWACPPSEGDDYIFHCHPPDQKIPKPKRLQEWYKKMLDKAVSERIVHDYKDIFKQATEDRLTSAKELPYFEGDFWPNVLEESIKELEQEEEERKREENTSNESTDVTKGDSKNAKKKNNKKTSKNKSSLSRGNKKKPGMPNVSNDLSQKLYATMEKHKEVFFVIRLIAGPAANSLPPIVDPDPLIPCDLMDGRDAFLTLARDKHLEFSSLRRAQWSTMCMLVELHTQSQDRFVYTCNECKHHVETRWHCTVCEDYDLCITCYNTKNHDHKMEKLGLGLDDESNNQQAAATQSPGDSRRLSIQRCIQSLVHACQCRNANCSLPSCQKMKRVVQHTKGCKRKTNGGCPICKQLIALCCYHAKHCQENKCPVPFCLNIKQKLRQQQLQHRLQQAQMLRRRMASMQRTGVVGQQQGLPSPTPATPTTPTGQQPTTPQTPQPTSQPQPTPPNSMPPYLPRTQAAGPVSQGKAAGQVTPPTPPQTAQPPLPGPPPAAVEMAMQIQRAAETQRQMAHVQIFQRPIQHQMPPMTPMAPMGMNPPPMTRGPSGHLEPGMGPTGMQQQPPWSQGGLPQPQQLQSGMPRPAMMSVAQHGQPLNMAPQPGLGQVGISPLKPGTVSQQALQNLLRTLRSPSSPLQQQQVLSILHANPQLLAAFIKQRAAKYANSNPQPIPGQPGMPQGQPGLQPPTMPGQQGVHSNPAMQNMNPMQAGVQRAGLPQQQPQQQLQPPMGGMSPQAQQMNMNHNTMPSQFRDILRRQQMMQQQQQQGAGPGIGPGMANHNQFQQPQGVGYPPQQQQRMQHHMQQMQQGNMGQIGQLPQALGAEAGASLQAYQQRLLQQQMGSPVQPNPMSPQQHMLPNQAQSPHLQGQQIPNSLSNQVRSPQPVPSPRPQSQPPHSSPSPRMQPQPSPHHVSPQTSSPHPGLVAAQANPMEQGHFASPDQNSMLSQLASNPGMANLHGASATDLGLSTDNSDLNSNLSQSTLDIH
assay-summary: Inhibition of human recombinant Histone acetyltransferase p300 catalytic domain (1284-1672 residues) using [3H]Acetyl-CoA and histone H3 substrate at 50 uM after 1 hr by liquid scintillation counting
Active and inactive are the calls of the source. The calls are words filed in the database; no cut-off is given here.
recorded-metric: inhibition

INSERT INTO assay_data (molecule_smiles, recorded_metric, measurement) VALUES
  ('O=C(O)c1c(O)cccc1CCCCCO', 'inhibition', 'inactive'),
  ('CCCCCCCCCCCCCCCc1ccc(O)c(C(=O)O)c1', 'inhibition', '85%'),
  ('CCCCCCCCCCc1cccc(O)c1C(=O)O', 'inhibition', '88%'),
  ('CCCCCCCCCCCCCCCc1cccc(O)c1C(=O)O', 'inhibition', '97%'),
  ('O=C(O)c1c(O)cccc1CCCCCCCCCCCO', 'inhibition', 'inactive'),
  ('CCCCCCCSCC(=O)c1ccccc1O', 'inhibition', 'inactive'),
  ('CCCCCc1cccc(O)c1C(=O)O', 'inhibition', 'inactive'),
  ('CCCCCCCCCCc1ccc(O)c(C(=O)O)c1', 'inhibition', '95%'),
  ('CCCCCc1ccc(O)c(C(=O)O)c1', 'inhibition', 'inactive');
